Each entry below carries its reported CC50.
Tested on: UACC-257
Test: cells
Settings: Homo sapiens, UACC-257, 48 h, read-out: LC50, UACC-257, 48 h
Outcome Measure: CC50 (µM)

compound="CC(C)C(C(=O)O)N1C(=O)/C(=C/C=C/c2ccc([N+](=O)[O-])o2)SC1=S (stereo not shown) [5b]" value_observed=6.8
compound="O=C(O)CCN1C(=O)/C(=C/C=C/c2ccc([N+](=O)[O-])o2)SC1=S [12b]" value_observed=9.21
compound="O=C(O)CCCCCN1C(=O)/C(=C/C=C/c2ccc([N+](=O)[O-])o2)SC1=S [14b]" value_observed=6.27
compound="CCCCC(C(=O)O)N1C(=O)/C(=C/C=C/c2ccc([N+](=O)[O-])o2)SC1=S (stereo not shown) [6b]" value_observed=9.62
